Experiment: Inhibition of ABL T315I mutant in mouse BAF3 cells assessed as reduction in cell viability after 72 hrs by MTT assay
Definition: the class of an entry is the range in lower = under 2 µM, middle = from 2 µM up to 5 µM, upper = 5 µM and over that contains its IC50.

COMPOUND SMILES	CLASS LABEL
COc1cc(N2CCN(C)CC2)ccc1Nc1ncc(Cl)c(Oc2ccccc2N=[N+]=[N-])n1	lower

Request: Bin this entry: `COc1cc(N2CCN(C)CC2)ccc1Nc1ncc(Cl)c(Oc2ccc(NC(=O)CO)cc2)n1`
Result: middle

Request: Categorize the following entry: `C=CC(=O)Nc1ccc(Oc2nc(Nc3ccc(N4CCN(C)CC4)cc3OC)ncc2Cl)cc1`
Result: upper

Request: Exam item: assign `COc1cc(N2CCN(C)CC2)ccc1Nc1ncc(Cl)c(Oc2ccc(N)cc2)n1` to the correct category.
Result: upper

Request: Quick check: band for `COc1cc(N2CCN(C)CC2)ccc1Nc1ncc(Cl)c(Oc2cccc(NC(=O)CCOCc3ccccc3)c2)n1`
Result: middle

Request: Classify this molecule: `COc1cc(N2CCN(C)CC2)ccc1Nc1ncc(Cl)c(Oc2cccc(NC(C)=O)c2)n1`
Result: upper

Request: Into which bin does this molecule go? `COc1cc(N2CCN(C)CC2)ccc1Nc1ncc(Cl)c(Oc2cccc(NC(=O)CCO)c2)n1`
Result: lower

Request: Which bin, given its IC50, does `C=CC(=O)Nc1ccccc1Oc1nc(Nc2ccc(N3CCN(C)CC3)cc2OC)ncc1Cl` occupy?
Result: middle

Request: Which bin, given its IC50, does `COc1cc(N2CCN(C)CC2)ccc1Nc1ncc(Cl)c(Oc2ccc(NC(=O)/C=C/CN(C)C)cc2)n1` occupy?
Result: middle

Request: Band for the recorded IC50 of `COc1cc(N2CCN(C)CC2)ccc1Nc1ncc(Cl)c(Oc2ccc(NC(C)=O)cc2)n1` ?
Result: middle

Request: Which of the defined bands does the recorded IC50 of `COc1cc(N2CCN(C)CC2)ccc1Nc1ncc(Cl)c(Oc2cccc([N+](=O)[O-])c2)n1` sit within?
Result: upper

Request: Exam item: assign `COc1cc(N2CCN(C)CC2)ccc1Nc1ncc(Cl)c(Oc2ccccc2NC(C)=O)n1` to the correct category.
Result: middle

Request: Which bin should I file `COc1cc(N2CCN(C)CC2)ccc1Nc1ncc(Cl)c(Oc2ccc(N=[N+]=[N-])cc2)n1` under?
Result: upper

----------
Experiment: Inhibition of ABL in mouse BAF3 cells assessed as reduction in cell viability after 72 hrs by MTT assay
// values below are reported IC50
Numeric answer only, unit µM assumed.

Observe how each entry below is paired with its result.
COMPOUND SMILES	REPORTED ENDPOINT	MEASUREMENT UNITS	MEASURED
COc1cc(N2CCN(C)CC2)ccc1Nc1ncc(Cl)c(Oc2cccc(N=[N+]=[N-])c2)n1	IC50	µM	3.87
COc1cc(N2CCN(C)CC2)ccc1Nc1ncc(Cl)c(Oc2ccc(NC(=O)CO)cc2)n1	IC50	µM	6.68
COc1cc(N2CCN(C)CC2)ccc1Nc1ncc(Cl)c(Oc2ccccc2NC(=O)CO)n1	IC50	µM	2.07
COc1cc(N2CCN(C)CC2)ccc1Nc1ncc(Cl)c(Oc2cccc(NC(=O)CO)c2)n1	IC50	µM	1.48
COc1cc(N2CCN(C)CC2)ccc1Nc1ncc(Cl)c(Oc2ccc(NC(=O)CCOCc3ccccc3)cc2)n1	IC50	µM	1.43

`COc1cc(N2CCN(C)CC2)ccc1Nc1ncc(Cl)c(Oc2cccc(NC(C)=O)c2)n1` yielded IC50 of 2.91

# IC50 of `COc1cc(N2CCN(C)CC2)ccc1Nc1ncc(Cl)c(Oc2ccc(NC(=O)COCc3ccccc3)cc2)n1` = 2.11

Record `COc1cc(N2CCN(C)CC2)ccc1Nc1ncc(Cl)c(Oc2ccccc2NC(=O)CCOCc2ccccc2)n1` . Reported IC50: 3.12

molecule `COc1cc(N2CCN(C)CC2)ccc1Nc1ncc(Cl)c(Oc2ccc(N=C=S)cc2)n1` , IC50 observed: 7.5

Form: molecule = `COc1cc(N2CCN(C)CC2)ccc1Nc1ncc(Cl)c(Oc2ccc(NC(=O)CCO)cc2)n1` ; IC50 = 3.25

Just so you know, measured IC50 for `COc1cc(N2CCN(C)CC2)ccc1Nc1ncc(Cl)c(Oc2cccc([N+](=O)[O-])c2)n1` came out at 6.8

----------
Parameter pIC50: see the listing below.
Experiment: Inhibition of ABL T315I mutant in mouse BAF3 cells assessed as reduction in cell viability after 72 hrs by MTT assay
Convention used: pIC50 is expressed as -log10 of the molar concentration.

The examples below pair each entry with its known result.
COMPOUND SMILES	REPORTED ENDPOINT	MEASURED
C=CC(=O)Nc1cccc(Oc2nc(Nc3ccc(N4CCN(C)CC4)cc3OC)ncc2Cl)c1	pIC50	4.79
COc1cc(N2CCN(C)CC2)ccc1Nc1ncc(Cl)c(Oc2ccccc2NC(=O)COCc2ccccc2)n1	pIC50	5.46

Per the records, this compound ( `COc1cc(N2CCN(C)CC2)ccc1Nc1ncc(Cl)c(Oc2ccccc2NC(=O)CCO)n1` ) has pIC50 equal to 5.41

Documented pIC50 of `COc1cc(N2CCN(C)CC2)ccc1Nc1ncc(Cl)c(Oc2ccccc2NC(=O)CCOCc2ccccc2)n1` : 5.51

The compound identified as `COc1cc(N2CCN(C)CC2)ccc1Nc1ncc(Cl)c(Oc2ccc(NC(=O)CCOCc3ccccc3)cc2)n1` registered its pIC50 at 5.82

The measured pIC50 associated with `COc1cc(N2CCN(C)CC2)ccc1Nc1ncc(Cl)c(Oc2ccc(NC(=O)CCO)cc2)n1` reads 5.47

// pIC50 value for `COc1cc(N2CCN(C)CC2)ccc1Nc1ncc(Cl)c(Oc2ccc(NC(=O)COCc3ccccc3)cc2)n1` : 5.44

Notebook: `COc1cc(N2CCN(C)CC2)ccc1Nc1ncc(Cl)c(Oc2ccc(N=C=S)cc2)n1` , pIC50 read as 5.02

Recorded pIC50 (compound `COc1cc(N2CCN(C)CC2)ccc1Nc1ncc(Cl)c(Oc2ccccc2N=C=S)n1` ): 5.05

----------
Test: Inhibition of ABL in mouse BAF3 cells assessed as reduction in cell viability after 72 hrs by MTT assay
So basically: is IC50 under 6 µM? Then fulfilled. Not under? Then not fulfilled.

COMPOUND SMILES	CLASS LABEL
COc1cc(N2CCN(C)CC2)ccc1Nc1ncc(Cl)c(Oc2ccc(NC(=O)/C=C/CN(C)C)cc2)n1	fulfilled
COc1cc(N2CCN(C)CC2)ccc1Nc1ncc(Cl)c(Oc2ccccc2NC(=O)COCc2ccccc2)n1	fulfilled
COc1cc(N2CCN(C)CC2)ccc1Nc1ncc(Cl)c(Oc2ccccc2N=[N+]=[N-])n1	fulfilled
COc1cc(N2CCN(C)CC2)ccc1Nc1ncc(Cl)c(Oc2ccccc2[N+](=O)[O-])n1	not fulfilled
C=CC(=O)Nc1ccc(Oc2nc(Nc3ccc(N4CCN(C)CC4)cc3OC)ncc2Cl)cc1	not fulfilled
COc1cc(N2CCN(C)CC2)ccc1Nc1ncc(Cl)c(Oc2ccccc2NC(=O)/C=C/CN(C)C)n1	not fulfilled

// switching to the query molecule
Request: A record lists `COc1cc(N2CCN(C)CC2)ccc1Nc1ncc(Cl)c(Oc2cccc(N)c2)n1` . Is its IC50 below 6 µM?
Result: fulfilled

----------
Experiment: Inhibition of ABL in mouse BAF3 cells assessed as reduction in cell viability after 72 hrs by MTT assay
REPORTED ENDPOINT: IC50 (µM)
Record the value in µM, omitting the unit from your answer.

COMPOUND SMILES	MEASURED
COc1cc(N2CCN(C)CC2)ccc1Nc1ncc(Cl)c(Oc2ccccc2NC(=O)CCO)n1	2.12

Memo: `COc1cc(N2CCN(C)CC2)ccc1Nc1ncc(Cl)c(Oc2ccc(N)cc2)n1` , reported IC50: 2.81

// sample `COc1cc(N2CCN(C)CC2)ccc1Nc1ncc(Cl)c(Oc2cccc(N=C=S)c2)n1` , its IC50 was 8.41

# IC50 (compound: `COc1cc(N2CCN(C)CC2)ccc1Nc1ncc(Cl)c(Oc2ccc(N=[N+]=[N-])cc2)n1` ) is 13.1

Entry `COc1cc(N2CCN(C)CC2)ccc1Nc1ncc(Cl)c(Oc2ccccc2N)n1` ; IC50 = 6.73

----------
Assay: Inhibition of ABL in mouse BAF3 cells assessed as reduction in cell viability after 72 hrs by MTT assay
Examples of compounds with documented IC50 follow.
// return numeric value only (unit: µM, not printed)

COMPOUND SMILES	MEASURED
C=CC(=O)Nc1cccc(Oc2nc(Nc3ccc(N4CCN(C)CC4)cc3OC)ncc2Cl)c1	9.69
C=CC(=O)Nc1ccccc1Oc1nc(Nc2ccc(N3CCN(C)CC3)cc2OC)ncc1Cl	2.92

What the record says about `COc1cc(N2CCN(C)CC2)ccc1Nc1ncc(Cl)c(Oc2cccc(NC(=O)CCO)c2)n1` : IC50 is 2.07

Please fill in: IC50 reported for `COc1cc(N2CCN(C)CC2)ccc1Nc1ncc(Cl)c(Oc2cccc(NC(=O)COCc3ccccc3)c2)n1` = 2.44
